Data provenance is paper PMC8809517.

Exercise: state measured pKd for each of the binders provided.
# Subject of test: T1, GFP-9S library array, motif 4 ND N98W;D124R (synthetic construct, N98W;D124R)
# T1 chain: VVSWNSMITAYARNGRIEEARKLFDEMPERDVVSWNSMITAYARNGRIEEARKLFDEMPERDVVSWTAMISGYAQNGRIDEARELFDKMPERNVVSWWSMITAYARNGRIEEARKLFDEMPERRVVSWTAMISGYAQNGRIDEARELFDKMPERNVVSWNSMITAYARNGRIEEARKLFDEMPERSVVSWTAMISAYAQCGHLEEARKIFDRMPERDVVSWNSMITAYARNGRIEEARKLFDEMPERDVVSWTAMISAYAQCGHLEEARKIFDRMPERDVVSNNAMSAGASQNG
# Protocol text: high-throughput RNA pulldown from lysate on Ni-NTA beads; HRP: 50 mM Tris pH 8, 150 mM NaCl, 1 mM beta-mercaptoethanol, 50 ug/ml BSA, 3 ug/ml yeast RNA, 0.5% heparin; ITC and FP: Tris pH 8, 200 mM KCl, 5% glycerol; MST: 50 mM Tris pH 8, 200 mM NaCl, 1 mM DTT, BSA, heparin, 0.05% Tween 20
# Measurement setup: tags: N-terminal His-eGFP; label: 5' Cy5
A value of pKd is the negative decimal logarithm of a concentration given in moles per litre.

The reported value for AUUAGACGUGA (ssRNA) [Cy5-rpoA-G] in terms of pKd is 7.04

get_value(item= AUUACACGUGA (ssRNA) [Cy5-rpoA] , readout=pKd) returns 6.95
